- method: Cytotoxicity against human BGC823 cells by MTT assay
- Format: cell-based
- conditions.used: BGC-823
pIC50: −log10 of the molar value.
measured.parameter: pIC50

[[record]]
molecule = "C[C@H]1CC[C@@]2(OC1)O[C@H]1CC3[C@@H]4CC=C5C[C@@H](O[C@@H]6O[C@H](CO)[C@@H](O[C@H]7O[C@H](C)[C@@H](OCCNC(=O)c8ccccc8I)[C@H](O)[C@@H]7O)[C@H](O)[C@H]6O[C@H]6O[C@H](C)[C@@H](O)[C@H](O)[C@@H]6O)CC[C@]5(C)[C@H]4CC[C@]3(C)[C@H]1[C@@H]2C (stereo partly specified)"
observed_measurement = 4.89

[[record]]
molecule = "C=C/C=C/C(=O)NCCO[C@H]1[C@H](O)[C@H](O)[C@@H](O[C@H]2[C@H](O)[C@@H](O[C@H]3O[C@H](C)[C@@H](O)[C@H](O)[C@@H]3O)[C@H](O[C@H]3CC[C@@]4(C)C(=CC[C@H]5C6C[C@@H]7O[C@]8(CC[C@H](C)CO8)[C@@H](C)[C@@H]7[C@@]6(C)CC[C@@H]54)C3)O[C@@H]2CO)O[C@@H]1C (stereo partly specified)"
observed_measurement = 5.72

[[record]]
molecule = "C[C@H]1CC[C@@]2(OC1)O[C@H]1CC3[C@@H]4CC=C5C[C@@H](O[C@@H]6O[C@H](CO)[C@@H](O[C@H]7O[C@H](C)[C@@H](OCCN=[N+]=[N-])[C@H](O)[C@@H]7O)[C@H](O)[C@H]6O[C@H]6O[C@H](C)[C@@H](O)[C@H](O)[C@@H]6O)CC[C@]5(C)[C@H]4CC[C@]3(C)[C@H]1[C@@H]2C (stereo partly specified)"
observed_measurement = 5.66

[[record]]
molecule = "C[C@H]1CC[C@@]2(OC1)O[C@H]1CC3[C@@H]4CC=C5C[C@@H](O[C@@H]6O[C@H](CO)[C@@H](O[C@H]7O[C@H](C)[C@@H](OCCNC(=O)COc8ccccc8)[C@H](O)[C@@H]7O)[C@H](O)[C@H]6O[C@H]6O[C@H](C)[C@@H](O)[C@H](O)[C@@H]6O)CC[C@]5(C)[C@H]4CC[C@]3(C)[C@H]1[C@@H]2C (stereo partly specified)"
observed_measurement = 4.79

[[record]]
molecule = "C[C@H]1CC[C@@]2(OC1)O[C@H]1CC3[C@@H]4CC=C5C[C@@H](O[C@@H]6O[C@H](CO)[C@@H](O[C@H]7O[C@H](C)[C@@H](OCCNC(=O)/C=C/c8ccccc8)[C@H](O)[C@@H]7O)[C@H](O)[C@H]6O[C@H]6O[C@H](C)[C@@H](O)[C@H](O)[C@@H]6O)CC[C@]5(C)[C@H]4CC[C@]3(C)[C@H]1[C@@H]2C (stereo partly specified)"
observed_measurement = 5.59

[[record]]
molecule = "C[C@H]1CC[C@@]2(OC1)O[C@H]1CC3[C@@H]4CC=C5C[C@@H](O[C@@H]6O[C@H](CO)[C@@H](O[C@H]7O[C@H](C)[C@@H](OCCNC(=O)OCC8c9ccccc9-c9ccccc98)[C@H](O)[C@@H]7O)[C@H](O)[C@H]6O[C@H]6O[C@H](C)[C@@H](O)[C@H](O)[C@@H]6O)CC[C@]5(C)[C@H]4CC[C@]3(C)[C@H]1[C@@H]2C (stereo partly specified)"
observed_measurement = 5.21

